meta.source: patent US20240132475A1

Target: MALT-1 (Isoform 1) (Homo sapiens)
Construct: using recombinant MALT-1 (Isoform 1, aa-840) generated in house; made in house
Sequence (Q9UDY8 1-824): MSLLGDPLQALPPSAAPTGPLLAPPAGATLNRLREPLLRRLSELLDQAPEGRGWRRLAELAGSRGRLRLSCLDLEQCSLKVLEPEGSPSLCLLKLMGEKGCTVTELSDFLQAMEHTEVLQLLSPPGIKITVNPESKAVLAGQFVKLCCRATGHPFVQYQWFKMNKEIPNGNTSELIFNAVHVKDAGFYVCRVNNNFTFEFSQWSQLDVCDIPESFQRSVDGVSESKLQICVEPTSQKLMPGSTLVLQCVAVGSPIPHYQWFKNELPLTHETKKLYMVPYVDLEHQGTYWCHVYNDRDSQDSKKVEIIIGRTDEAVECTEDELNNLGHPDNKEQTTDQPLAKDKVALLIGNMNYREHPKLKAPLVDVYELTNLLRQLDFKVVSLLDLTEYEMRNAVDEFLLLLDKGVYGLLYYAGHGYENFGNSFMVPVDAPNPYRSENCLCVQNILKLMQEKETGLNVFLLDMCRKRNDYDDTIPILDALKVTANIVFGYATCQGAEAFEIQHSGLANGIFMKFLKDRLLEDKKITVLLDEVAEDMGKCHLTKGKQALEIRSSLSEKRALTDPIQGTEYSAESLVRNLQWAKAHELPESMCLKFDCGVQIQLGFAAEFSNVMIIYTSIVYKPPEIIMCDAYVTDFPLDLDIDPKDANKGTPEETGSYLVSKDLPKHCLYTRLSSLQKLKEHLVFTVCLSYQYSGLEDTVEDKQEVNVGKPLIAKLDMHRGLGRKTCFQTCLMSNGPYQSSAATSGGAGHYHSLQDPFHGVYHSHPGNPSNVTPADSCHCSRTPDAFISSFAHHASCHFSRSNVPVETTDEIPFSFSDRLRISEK
Assay: MALT-1 (Isoform 1) enzyme fluorescent biochemical assay
Settings: test compound 1 μM; recombinant MALT-1 1.5 nM
Decision: Percent Inhibition (1 μM) >= 80% yields T, all other cases yield F.

Record excerpt, results attached:
CC(c1ccccc1)n1ncc(C(=O)Nc2cnc(-n3nccn3)c(C#N)c2)c1C(F)(F)F (single isomer, unassigned) [Compound 2b]; F
CC(c1ccccc1)n1ncc(C(=O)Nc2cnc(-n3nccn3)c(C#N)c2)c1C(F)(F)F (single isomer, unassigned) [Compound 2a]; T
CC(c1cccc(F)c1)n1ncc(C(=O)Nc2cnc(-n3nccn3)c(C#N)c2)c1C(F)(F)F (single isomer, unassigned) [Compound 3a]; F
CC(c1cccc(F)c1)n1ncc(C(=O)Nc2cnc(-n3nccn3)c(C#N)c2)c1C(F)(F)F (single isomer, unassigned) [Compound 3b]; T

input: API: above_or_equal(metric=Percent Inhibition (1 μM), cutoff=80%) for item CC(c1ccccc1)n1ncc(C(=O)Nc2cnc(-n3nccn3)c(Cl)c2)c1C(F)(F)F (single isomer, unassigned) [Compound 5b]
output: T

###

Can you tell me IC50 for the items I'm about to list?
biological target: MALT-1 (Isoform 1) (Homo sapiens); construct: using recombinant MALT-1 (Isoform 1, aa-840) generated in house; assay: MALT-1 (Isoform 1) enzyme fluorescent biochemical assay; conditions: dose-response, sigmoidal curve fit; reported as groups A, B, C

Some entries whose results are on file:
O=C(Nc1cc(C(F)(F)F)ncn1)c1cnn(Cc2cccc(F)c2Cl)c1C(F)(F)F; > 1000 nM
N#Cc1cc(NC(=O)c2cnn(Cc3ccc(F)cc3)c2C(F)(F)F)cnc1-n1nccn1; > 1000 nM
Cc1c(F)cccc1Cn1ncc(C(=O)Nc2cnc(-n3nccn3)c(Cl)c2)c1C(F)(F)F; < 250 nM

Provide IC50 values for the following items, in order.
1. CC(C)C(c1cccc(F)c1)n1ncc(C(=O)Nc2cnc(-n3nccn3)c(C#N)c2)c1C(F)(F)F (stereo not shown)
2. COc1c(F)cccc1Cn1ncc(C(=O)Nc2cnc(-n3nccn3)c(C#N)c2)c1C(F)(F)F
3. O=C(Nc1cncc(C(F)(F)F)c1)c1cnn(Cc2cccc(F)c2Cl)c1C(F)(F)F
4. CC(c1ccccc1)n1ncc(C(=O)Nc2cnc(-n3nccn3)c(C#N)c2)c1C(F)(F)F (single isomer, unassigned) [Compound 2a]

output:
["> 1000 nM", "< 250 nM", "251 to 1000 nM", "< 250 nM"]
